Data origin, for the record: ChEMBL document CHEMBL4421722

- Species: Rattus norvegicus
- measurementDescription: Inhibition of rat recombinant geranylgeranyltransferase type I expressed in Escherichia coli assessed as residual enzyme activity for geranylgeranylation of K-Ras4B at 50 uM incubated for 30 mins in presence of [3H]GGPP by scintillation counting assay relative to control
measuredQuantity: Activity (%)

The examples below pair each entry with its known result.
INSERT INTO measurements (moleculesmiles, unitinfo, readoutvalue) VALUES
  ('CCOc1ccc([C@@H]2C[C@@H](SCC)[C@H](C(=O)O)CN2S(=O)(=O)c2ccc(C)cc2)cc1', '%', 87.1),
  ('CCOc1ccc([C@@H]2C[C@@H](SCC(C)C)[C@H](C(=O)O)CN2S(=O)(=O)c2ccc(C)cc2)cc1', '%', 83.1),
  ('COc1ccc(S[C@@H]2C[C@@H](c3ccc(C)cc3)N(S(C)(=O)=O)C[C@H]2C(=O)O)cc1', '%', 99),
  ('COc1ccc([C@@H]2CC=C(C(=O)O)[C@H](c3ccc(F)cc3)N2S(=O)(=O)c2ccccc2C)cc1', '%', 66.1),
  ('COC(=O)c1ccccc1S(=O)(=O)N1[C@@H](c2ccc(Cl)cc2)C(C(=O)O)=CC[C@H]1c1ccc(C)cc1', '%', 81.4);

(I) CCCCS[C@@H]1C[C@@H](c2ccc(OC)cc2)N(S(=O)(=O)c2ccccc2C)C[C@H]1C(=O)O
(II) C=CCS[C@H]1[C@@H](C(=O)O)[C@H](c2ccc(C#N)cc2)N(S(=O)(=O)c2ccc(C)cc2)[C@@H]1CCCCCC
(III) Cc1ccccc1S(=O)(=O)N1[C@H](CC2CCCC2)[C@@H](SCCC(=O)OC(C)(C)C)[C@@H](C(=O)O)[C@@H]1c1ccc(Cl)cc1
(IV) Cc1ccccc1S(=O)(=O)N1C[C@@H](C(=O)O)[C@H](SCCC(C)C)C[C@H]1c1ccc(Cl)cc1
Exam item: Thanks in advance: please rank these 4 entries by Activity, highest to lowest. List the labels in the requested order.
Marked response: I, IV, II, III

(P) COc1ccc([C@@H]2C[C@@H](Sc3ccc(Cl)cc3)[C@H](C(=O)O)CN2S(=O)(=O)c2ccc(C)cc2)cc1OC
(Q) CCCCCCS[C@@H]1C[C@@H](c2ccc(C)cc2)N(S(=O)(=O)c2ccc(C)cc2)C[C@H]1C(=O)O
Exam item: # return whichever of P and Q has the smaller Activity The response must carry the label of the picked entry.
Marked response: Q
(Q: 70.9%, P: 107%)

(1) CCc1ccc([C@@H]2C=CCCN2S(=O)(=O)c2ccc(C)cc2)cc1
(2) Cc1ccc([C@@H]2C[C@@H](SCc3ccc(C(C)(C)C)cc3)[C@H](C(=O)O)CN2S(=O)(=O)c2ccccc2C)cc1
Exam item: Sorting ascending by Activity, which comes first: 1 or 2 ? Identify your selection by its label.
Marked response: 2
(2: 69.5%, 1: 99.5%)

###

- Species: Rattus norvegicus
- measurementDescription: Inhibition of rat recombinant geranylgeranyltransferase type I expressed in Escherichia coli assessed as residual enzyme activity for geranylgeranylation of K-Ras4B at 50 uM incubated for 30 mins in presence of [3H]GGPP by scintillation counting assay relative to control
measuredQuantity: Activity (%)

INSERT INTO results (moleculesmiles, measuredquantity, unitinfo, readoutvalue) VALUES
  ('Cc1ccc([C@@H]2C[C@@H](Sc3ccc(Cl)cc3)[C@H](C(=O)O)CN2S(=O)(=O)c2ccccc2)cc1', 'Activity', '%', 78.3),
  ('CCc1ccc([C@@H]2C[C@@H](SCCC(C)C)[C@H](C(=O)O)CN2S(=O)(=O)c2ccc(C)cc2)cc1', 'Activity', '%', 71.9),
  ('CCOc1ccc([C@@H]2C[C@@H](Sc3ccc(OC)cc3)[C@H](C(=O)O)CN2S(=O)(=O)c2ccc(C)cc2)cc1', 'Activity', '%', 79.1),
  ('C=CCS[C@@H]1C[C@@H](c2ccc(CC)cc2)N(S(=O)(=O)c2ccc(C)cc2)C[C@H]1C(=O)O', 'Activity', '%', 89.6);

(A) C=CCS[C@@H]1C[C@@H](c2ccc(OC)cc2)N(S(=O)(=O)c2ccccc2)C[C@H]1C(=O)O
(B) Cc1ccc(S(=O)(=O)N2C[C@@H](C(=O)O)[C@H](SCc3ccc(C(C)(C)C)cc3)C[C@H]2c2ccccc2F)cc1
Exam item: // max by Activity over [ A , B ] Identify your pick by its label.
Marked response: A

(I) Cc1ccc(S(=O)(=O)N2[C@@H](c3ccc(Br)cc3)C(C(=O)O)=CC[C@H]2c2ccc(C#N)cc2)cc1
(II) COc1cc([C@@H]2C[C@@H](SCc3ccc(Cl)cc3)[C@H](C(=O)O)CN2S(=O)(=O)c2ccc(C)cc2)cc(OC)c1OC
(III) Cc1ccc(S[C@@H]2C[C@@H](c3ccc(C)cc3)N(S(C)(=O)=O)C[C@H]2C(=O)O)cc1
Exam item: Could you please order the items by Activity, going from the lowest number to the highest? Order the labels as requested and give them as your answer.
Marked response: II, I, III
(II: 44.9%, I: 70.6%, III: 108%)

(A) CCS[C@@H]1C[C@@H](c2ccc(CC)cc2)N(S(=O)(=O)c2ccc(C)cc2)C[C@H]1C(=O)O
(B) CCCS[C@@H]1C[C@@H](c2ccc(Cl)cc2)N(S(=O)(=O)c2ccccc2C)C[C@H]1C(=O)O
(C) CC(C)(C)OC(=O)CCS[C@H]1[C@@H](C(=O)O)[C@H](c2ccc(Cl)cc2)N(S(=O)(=O)c2ccc(Cl)cc2)[C@@H]1CC1CCCC1
(D) C=CCS[C@H]1[C@@H](C(=O)O)[C@H](c2ccc(Cl)c(Cl)c2)N(S(=O)(=O)c2ccc(C)cc2)[C@@H]1CCCCCC
Exam item: Ascending sort, Activity. Give me the labels in the order the question wants.
Marked response: D, C, B, A

(I) Cc1ccc([C@H]2C(C(=O)O)=CC[C@@H](c3ccc4c(c3)OCO4)N2S(=O)(=O)c2ccc(C)cc2)cc1
(II) CCCCS[C@@H]1C[C@@H](c2ccc(C)cc2)N(S(=O)(=O)c2ccc(Cl)cc2)C[C@H]1C(=O)O
(III) COc1cccc([C@@H]2C[C@@H](SC3CCCC3)[C@H](C(=O)O)CN2S(=O)(=O)c2ccc(C)cc2)c1
(IV) CCC[C@@H]1[C@@H](SCCC(=O)OC(C)(C)C)[C@@H](C(=O)O)[C@H](c2cccc(F)c2)N1S(=O)(=O)c1ccc(C)cc1
Exam item: Place the items in sequence of falling Activity. State the ranking by listing the labels in the requested order.
Marked response: III, I, II, IV
(III: 113%, I: 75.7%, II: 49.2%, IV: 20.2%)

###

- Species: Rattus norvegicus
- measurementDescription: Inhibition of rat recombinant geranylgeranyltransferase type I expressed in Escherichia coli assessed as residual enzyme activity for geranylgeranylation of RhoA at 50 uM incubated for 30 mins in presence of [3H]GGPP by scintillation counting assay relative to control
measuredQuantity: Activity (%)

Solved cases below.
INSERT INTO results (moleculesmiles, readoutvalue) VALUES
  ('Cc1ccc(S(=O)(=O)N2C[C@@H](C(=O)O)[C@H](SCCc3ccccc3)C[C@H]2c2ccccc2)cc1', 5.8),
  ('C=CCS[C@H]1[C@@H](C(=O)O)[C@H](c2ccc(Cl)c(Cl)c2)N(S(=O)(=O)c2ccc(C)cc2)[C@@H]1CC1CCCC1', 8.6);

(P) COc1ccc([C@@H]2C[C@@H](Sc3ccc(Cl)cc3)[C@H](C(=O)O)CN2S(=O)(=O)c2ccccc2C)cc1
(Q) Cc1ccc(S(=O)(=O)N2C[C@@H](C(=O)O)[C@H](SCc3ccccc3)C[C@H]2c2ccccc2F)cc1
Exam item: P or Q : whose Activity is greater? Mark your answer with the label of the selected entry.
Marked response: P
(P: 17.7%, Q: 8.1%)

###

- Species: Rattus norvegicus
- measurementDescription: Inhibition of rat recombinant geranylgeranyltransferase type I expressed in Escherichia coli assessed as residual enzyme activity for geranylgeranylation of RhoA at 50 uM incubated for 30 mins in presence of [3H]GGPP by scintillation counting assay relative to control
measuredQuantity: Activity (%)

INSERT INTO results (moleculesmiles, readoutvalue) VALUES
  ('Cc1ccc(S(=O)(=O)N2C[C@@H](C(=O)O)[C@H](SCCc3ccccc3)C[C@H]2c2cccc(Cl)c2)cc1', 3.7),
  ('Cc1ccccc1S(=O)(=O)N1[C@@H](c2cccc(Br)c2)C(C(=O)O)=CC[C@H]1c1ccc(Cl)cc1', 8.8),
  ('COc1ccc([C@@H]2C[C@@H](Sc3ccccc3)[C@H](C(=O)O)CN2S(=O)(=O)c2ccc(Cl)cc2)cc1', 11.9),
  ('Cc1ccc(S(=O)(=O)N2C[C@@H](C(=O)O)[C@H](SCCC(C)C)C[C@H]2c2cccc(Cl)c2)cc1', 12),
  ('Cc1cccc([C@H]2C(C(=O)O)=CC[C@@H](c3ccc(Cl)cc3)N2S(=O)(=O)c2ccccc2C)c1', 12.4);

(1) COc1ccc([C@@H]2C[C@@H](SCc3ccccc3)[C@H](C(=O)O)CN2S(=O)(=O)c2ccc(Cl)cc2)cc1
(2) CCCC[C@@H]1[C@@H](Sc2ccc(OC)cc2)[C@@H](C(=O)O)[C@H](c2cccc(F)c2)N1S(=O)(=O)c1ccc(C)cc1
Exam item: Thinking about recorded Activity values, which is higher, 1 or 2 ? Answer by quoting the chosen item's label.
Marked response: 1
(1: 11.9%, 2: 3.5%)
